The entries below come with measured Kd values attached.
Target Under Test: kinase enzymes (Homo sapiens, UniProt P42336)
Sequence (P42336 whole entry): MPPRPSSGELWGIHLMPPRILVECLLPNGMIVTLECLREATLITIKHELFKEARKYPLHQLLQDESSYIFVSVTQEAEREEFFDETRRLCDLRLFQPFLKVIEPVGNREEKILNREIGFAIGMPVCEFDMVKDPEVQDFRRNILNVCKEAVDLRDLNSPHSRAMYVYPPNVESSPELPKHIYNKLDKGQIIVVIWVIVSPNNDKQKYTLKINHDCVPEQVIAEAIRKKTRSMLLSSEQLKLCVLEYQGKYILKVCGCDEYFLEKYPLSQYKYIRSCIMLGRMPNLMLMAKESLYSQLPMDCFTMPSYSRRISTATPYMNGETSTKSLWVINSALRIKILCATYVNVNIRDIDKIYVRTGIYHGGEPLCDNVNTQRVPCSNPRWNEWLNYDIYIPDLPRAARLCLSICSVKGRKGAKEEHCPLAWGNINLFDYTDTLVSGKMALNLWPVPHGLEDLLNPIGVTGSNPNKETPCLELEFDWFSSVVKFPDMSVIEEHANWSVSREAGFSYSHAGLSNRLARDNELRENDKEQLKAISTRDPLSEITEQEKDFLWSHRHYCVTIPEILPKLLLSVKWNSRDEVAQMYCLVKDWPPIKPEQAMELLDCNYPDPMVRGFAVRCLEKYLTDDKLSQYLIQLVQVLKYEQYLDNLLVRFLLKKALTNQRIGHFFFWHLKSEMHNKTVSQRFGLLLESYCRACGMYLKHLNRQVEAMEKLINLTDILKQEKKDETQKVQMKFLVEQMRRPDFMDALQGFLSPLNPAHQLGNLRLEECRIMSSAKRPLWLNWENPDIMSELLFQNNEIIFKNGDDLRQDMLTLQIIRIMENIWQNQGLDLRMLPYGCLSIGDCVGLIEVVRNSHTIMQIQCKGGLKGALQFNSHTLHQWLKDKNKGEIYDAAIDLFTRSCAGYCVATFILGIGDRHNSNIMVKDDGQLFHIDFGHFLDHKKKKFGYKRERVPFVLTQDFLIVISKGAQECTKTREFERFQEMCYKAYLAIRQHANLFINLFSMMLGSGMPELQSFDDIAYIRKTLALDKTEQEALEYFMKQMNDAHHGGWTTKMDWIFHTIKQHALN

* CC(Nc1cc(F)c(F)c(F)c1)c1cc(C(=O)NC[C@@H](C)O)cc2ncc(N3CCOCC3)nc12 (single isomer, unassigned) [Compound 284b] | > 30.2 µM

Problem: Checklist item: Kd tested on kinase enzymes (Homo sapiens, UniProt P42336), entry CN[C@H]1CCN(C(=O)c2cc(C(C)Oc3ccc(F)c(F)c3)c3nc(N4CCOCC4)cnc3c2)C1 (single isomer, unassigned) [Compound 370b] , value?
Result: > 30.2 µM

Problem: Checklist item: Kd tested on kinase enzymes (Homo sapiens, UniProt P42336), entry CC(Nc1cc(F)cc(F)c1)c1cc(CN2C[C@@H](C)O[C@@H](C)C2)cc2ncc(N3CCOCC3)nc12 (single isomer, unassigned) , value?
Result: > 30.2 µM
